Study the reported IC50 values for Histone deacetylase 1 (Homo sapiens) given below; they originate from different publications.
ENDPOINT: IC50 (nM)

CC12CC3CC(C)(C1)CC(NC(=O)/C=C/c1ccc(C(=O)NO)cc1)(C3)C2; 2670
O=C(CCCCCCN1C(=O)C/C(=C\c2ccccc2Cl)C1=O)NO; 19.3
CCc1c(C#N)c(SC(C(N)=O)c2ccccc2)nc(N(C)C2CCN(c3ncc(C(=O)NO)cn3)CC2)c1C#N (centres undefined); 56.8

I = COc1cccc(/C=C2\CC(=O)N(CCCCCCC(=O)NO)C2=O)c1
II = Cc1c2ccc(Nc3ccnc(Nc4ccc(OCCCCCCC(=O)NO)cc4)n3)cc2nn1C
III = O=C(NO)c1ccc(CNC(=O)[C@@H]2Cc3c([nH]c4ccccc34)[C@@H](c3ccccc3)N2)cc1
IV = O=C(CCCCCCN1C(=O)C/C(=C\c2ccc(Cl)c(Cl)c2)C1=O)NO
Qu. # ascending order, key=IC50 Sort and list the labels as requested.
Ans. I, IV, II, III
